System: Vero E6 infected with SARS-CoV-2
Assay: inhibition of SARS-CoV-2 cytopathic effect; higher = more antiviral protection, active = above 15
Settings: 833.33 nM; 48 h
observedProperty: inhibition of SARS-CoV-2 cytopathic effect (%)

compound	assayValue
C=CC[C@@H]1/C=C(\C)C[C@H](C)C[C@H](OC)[C@H]2O[C@@](O)(C(=O)C(=O)N3CCCC[C@H]3C(=O)O[C@H](/C(C)=C/[C@@H]3CC[C@@H](O)[C@H](OC)C3)[C@H](C)[C@@H](O)CC1=O)[C@H](C)C[C@@H]2OC [tacrolimus]	1.67
COc1ccc(C(=O)c2ccccc2)c(O)c1 [oxybenzone]	0.2
Cn1cc(C2=C(c3cn(C4CCN(Cc5ccccn5)CC4)c4ccccc34)C(=O)NC2=O)c2ccccc21 [enzastaurin]	1.31
O=C(O)COC(=O)Cc1ccccc1Nc1c(Cl)cccc1Cl [aceclofenac]	-0.85
CCN1C[C@H](C)n2c(c(O)c3c(=O)n(Cc4ccc(F)c(Cl)c4)nc(C(=O)NC)c32)C1=O	0.69
OC[C@H]1NC[C@@H](O)[C@@H](O)[C@@H]1O [1-deoxymannojirimycin]	1.33
CCCCCCCCCCCCCCCCNc1ccc(C(=O)O)cc1 [cetaben]	1.67
CC(=O)c1ccc2c(c1)N(CCCN(C)C)c1ccccc1S2 [acepromazine]	-3.24
